test system: Human coronavirus OC43; experiment: microbe, parasite or virus in culture; conditions: Betacoronavirus 1, VR-1558, NCI-H460, 72 h
Description: Antiviral activity against HCoV-OC43 VR-1558 infected in human NCI-H460 cells assessed as inhibition of viral growth incubated for 72 hrs by CCK-8 assay
Field: pEC50. Provide a value for each of the molecules that follow.
pEC50 is a log-scale quantity: -log10 of the concentration expressed in molar.

So for `C=CCOc1ccc(C(=O)Nc2ccc(CN3CC(N(C)C)C3)c(C(F)(F)F)c2)cc1[N+](=O)[O-]` , the logged pEC50 turned out to be 5.12

Item: `CN1CCN(Cc2ccc(NC(=O)c3ccc(OCCCCl)c([N+](=O)[O-])c3)cc2C(F)(F)F)CC1` | pEC50: 5.61

The reported pEC50 of the molecule `CCOc1ccc(C(=O)Nc2ccc(CN3CC(N(C)C)C3)c(C(F)(F)F)c2)cc1[N+](=O)[O-]` was 5.73

Input CN(C)C1CCN(Cc2ccc(NC(=O)c3ccc(OCCCCl)c([N+](=O)[O-])c3)cc2C(F)(F)F)C1 (centres undefined) . Output pEC50: 5.01
